Here's what we have: IC50 numbers for Phosphatidylinositol 4-kinase beta (Homo sapiens).

Compound: COC[C@H]1OC(=O)c2coc3c2[C@@]1(C)C1=C(C3=O)[C@@H]2CCC(=O)[C@@]2(C)C[C@H]1OC(C)=O [WORTMANNIN]
Measured target: Phosphatidylinositol 4-kinase beta (Homo sapiens)
Sequence (Q9UBF8 whole entry): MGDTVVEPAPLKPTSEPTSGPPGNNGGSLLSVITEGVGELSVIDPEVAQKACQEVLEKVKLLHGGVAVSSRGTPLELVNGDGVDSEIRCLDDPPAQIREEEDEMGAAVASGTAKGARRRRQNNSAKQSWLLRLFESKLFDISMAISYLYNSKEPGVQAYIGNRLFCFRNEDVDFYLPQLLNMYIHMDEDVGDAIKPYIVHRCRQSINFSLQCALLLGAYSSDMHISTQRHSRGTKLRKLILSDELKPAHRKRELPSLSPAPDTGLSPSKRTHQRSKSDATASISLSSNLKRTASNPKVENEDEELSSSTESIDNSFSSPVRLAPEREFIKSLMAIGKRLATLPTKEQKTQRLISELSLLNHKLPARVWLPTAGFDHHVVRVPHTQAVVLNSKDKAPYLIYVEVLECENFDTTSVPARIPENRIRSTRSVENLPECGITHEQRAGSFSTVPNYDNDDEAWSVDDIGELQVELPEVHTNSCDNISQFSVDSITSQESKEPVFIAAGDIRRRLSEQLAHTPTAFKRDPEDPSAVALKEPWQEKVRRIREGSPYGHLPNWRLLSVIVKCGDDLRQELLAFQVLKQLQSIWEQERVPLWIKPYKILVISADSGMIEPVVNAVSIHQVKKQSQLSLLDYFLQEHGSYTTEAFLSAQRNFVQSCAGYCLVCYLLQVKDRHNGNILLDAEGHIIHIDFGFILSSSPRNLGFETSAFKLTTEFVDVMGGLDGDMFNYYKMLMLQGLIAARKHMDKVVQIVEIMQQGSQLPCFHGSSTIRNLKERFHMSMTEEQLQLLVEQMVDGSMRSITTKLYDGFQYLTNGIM
IC50: 0.44 µM
//
Compound: NC(=O)c1cc2c(N)ncnc2cc1-c1ccc2c(c1)CCO2
Measured target: Phosphatidylinositol 4-kinase beta (Homo sapiens)
IC50: > 50 µM
//
Compound: NC(=O)c1cc2c(N)ncnc2cc1-c1ccc2cc[nH]c2c1
Measured target: Phosphatidylinositol 4-kinase beta (Homo sapiens)
IC50: > 50 µM

Incoming: Return IC50 measured with Phosphatidylinositol 4-kinase beta (Homo sapiens) given this compound: `NC(=O)c1cc2c(N)ncnc2cc1-c1ccc2[nH]ccc2c1`
Outgoing: > 50 µM

###

Biological target: Phosphatidylinositol 4-kinase type 2-alpha (Homo sapiens, UniProt Q9BTU6)
Sequence (Q9BTU6 whole entry): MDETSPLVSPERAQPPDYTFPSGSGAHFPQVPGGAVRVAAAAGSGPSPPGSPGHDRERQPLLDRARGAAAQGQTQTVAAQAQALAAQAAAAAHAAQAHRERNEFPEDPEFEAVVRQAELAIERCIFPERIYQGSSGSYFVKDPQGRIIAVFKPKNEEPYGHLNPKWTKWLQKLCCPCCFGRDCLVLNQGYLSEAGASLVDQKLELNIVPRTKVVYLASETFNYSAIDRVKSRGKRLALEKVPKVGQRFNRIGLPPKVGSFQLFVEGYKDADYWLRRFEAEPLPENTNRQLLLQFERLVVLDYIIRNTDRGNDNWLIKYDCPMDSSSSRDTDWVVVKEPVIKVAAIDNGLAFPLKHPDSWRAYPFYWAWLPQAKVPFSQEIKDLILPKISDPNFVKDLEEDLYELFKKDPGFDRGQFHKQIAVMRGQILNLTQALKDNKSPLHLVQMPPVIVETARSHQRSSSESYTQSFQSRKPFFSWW
pIC50: −log10 of the molar value.
# pIC50 values compiled below

Molecule: COC[C@H]1OC(=O)c2coc3c2[C@@]1(C)C1=C(C3=O)[C@@H]2CCC(=O)[C@@]2(C)C[C@H]1OC(C)=O [WORTMANNIN]
pIC50: < 4.52
--
Molecule: NC(=O)c1cc2c(N)ncnc2cc1-c1cncc(CO)c1
pIC50: < 4.30

Incoming: So what does the record say about pIC50 for `NC(=O)c1cc2c(N)ncnc2cc1-c1ccc(CO)o1` ?
Outgoing: < 4.30

###

Here's what we have: IC50 numbers for UniProt:P42356.
Sequence (P42356 whole entry): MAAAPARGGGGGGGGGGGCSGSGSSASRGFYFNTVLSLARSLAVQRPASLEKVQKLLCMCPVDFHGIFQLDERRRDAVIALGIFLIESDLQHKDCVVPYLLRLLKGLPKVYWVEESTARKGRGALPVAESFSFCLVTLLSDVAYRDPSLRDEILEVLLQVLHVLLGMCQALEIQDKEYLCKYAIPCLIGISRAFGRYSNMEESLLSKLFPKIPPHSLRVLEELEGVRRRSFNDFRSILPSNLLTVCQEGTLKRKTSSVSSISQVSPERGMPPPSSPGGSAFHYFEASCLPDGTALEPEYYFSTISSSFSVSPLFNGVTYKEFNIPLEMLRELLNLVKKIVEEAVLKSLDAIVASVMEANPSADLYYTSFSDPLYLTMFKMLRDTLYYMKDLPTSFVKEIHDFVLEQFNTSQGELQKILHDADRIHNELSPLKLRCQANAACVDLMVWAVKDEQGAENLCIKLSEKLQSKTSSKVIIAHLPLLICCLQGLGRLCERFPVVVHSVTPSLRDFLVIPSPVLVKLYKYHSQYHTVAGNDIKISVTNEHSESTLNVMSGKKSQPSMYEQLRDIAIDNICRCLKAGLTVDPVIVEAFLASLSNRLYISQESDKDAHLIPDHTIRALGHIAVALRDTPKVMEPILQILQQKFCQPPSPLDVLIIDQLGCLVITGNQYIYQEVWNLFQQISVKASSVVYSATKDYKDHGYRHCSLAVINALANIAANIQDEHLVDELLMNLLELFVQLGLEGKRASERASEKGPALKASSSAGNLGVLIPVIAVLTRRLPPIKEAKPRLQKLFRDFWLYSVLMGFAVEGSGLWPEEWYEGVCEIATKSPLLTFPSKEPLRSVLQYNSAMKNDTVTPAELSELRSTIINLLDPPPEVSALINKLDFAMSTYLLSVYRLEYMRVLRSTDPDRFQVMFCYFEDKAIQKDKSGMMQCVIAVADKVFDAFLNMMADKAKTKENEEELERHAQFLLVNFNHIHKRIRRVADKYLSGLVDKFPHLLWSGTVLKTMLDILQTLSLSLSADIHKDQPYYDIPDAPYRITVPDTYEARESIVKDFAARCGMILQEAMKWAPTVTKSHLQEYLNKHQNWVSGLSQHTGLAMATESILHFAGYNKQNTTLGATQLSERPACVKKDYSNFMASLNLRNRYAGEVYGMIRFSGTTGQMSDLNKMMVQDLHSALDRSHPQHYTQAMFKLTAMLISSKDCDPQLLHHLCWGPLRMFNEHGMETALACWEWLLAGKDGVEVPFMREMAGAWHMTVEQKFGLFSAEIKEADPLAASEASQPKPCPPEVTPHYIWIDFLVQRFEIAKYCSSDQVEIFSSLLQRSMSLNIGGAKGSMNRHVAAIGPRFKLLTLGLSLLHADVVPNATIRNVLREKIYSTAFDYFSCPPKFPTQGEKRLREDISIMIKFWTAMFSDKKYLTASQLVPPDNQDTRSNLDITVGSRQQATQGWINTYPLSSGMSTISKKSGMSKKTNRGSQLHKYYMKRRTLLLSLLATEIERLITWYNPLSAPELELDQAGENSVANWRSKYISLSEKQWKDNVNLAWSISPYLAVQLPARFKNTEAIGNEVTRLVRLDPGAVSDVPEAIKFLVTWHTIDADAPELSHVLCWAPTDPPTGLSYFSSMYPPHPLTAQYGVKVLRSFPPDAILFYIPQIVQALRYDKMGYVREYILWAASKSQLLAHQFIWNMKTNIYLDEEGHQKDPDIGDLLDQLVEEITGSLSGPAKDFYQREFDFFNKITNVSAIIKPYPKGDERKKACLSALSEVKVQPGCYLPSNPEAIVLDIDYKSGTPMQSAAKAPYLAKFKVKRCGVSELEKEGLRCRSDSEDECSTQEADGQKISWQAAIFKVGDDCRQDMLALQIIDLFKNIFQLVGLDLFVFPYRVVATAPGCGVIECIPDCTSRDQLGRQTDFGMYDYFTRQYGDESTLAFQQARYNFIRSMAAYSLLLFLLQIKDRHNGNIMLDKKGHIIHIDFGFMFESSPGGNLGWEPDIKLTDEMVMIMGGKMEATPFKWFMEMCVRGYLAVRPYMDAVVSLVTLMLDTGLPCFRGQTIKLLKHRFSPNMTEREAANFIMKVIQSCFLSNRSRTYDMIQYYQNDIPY

These solved cases illustrate the format of a correct answer.
Molecule: CC(=O)Nc1cccc(-c2cc3ncnc(N)c3cc2C(N)=O)c1
IC50: > 50 µM
--
Molecule: NC(=O)c1cc2c(N)ncnc2cc1-c1ccc2[nH]ccc2c1
IC50: > 50 µM
--
Molecule: NC(=O)c1cc2c(N)ncnc2cc1-c1ccc2c(c1)OCO2
IC50: > 50 µM

Incoming: Return IC50 measured with UniProt:P42356 given this molecule: `CCCCc1cc(=O)oc2cc(OCC(=O)N[C@@H](Cc3c[nH]c4ccc(O)cc34)C(=O)O)ccc12`
Outgoing: > 50 µM

Incoming: Return IC50 measured with UniProt:P42356 given this molecule: COC[C@H]1OC(=O)c2coc3c2[C@@]1(C)C1=C(C3=O)[C@@H]2CCC(=O)[C@@]2(C)C[C@H]1OC(C)=O [WORTMANNIN]
Outgoing: 0.28 µM

Data origin: ChEMBL document CHEMBL5214956
